# System: A673/TR/shEF
# ASSAY METHOD TEXT: cell viability (LOESS-normalised, relative to median of negative controls) (log2 ratio); higher = more viable cells (less compound effect), active = hit call of the paper (over 3 MAD below the median)
# CONDITION DETAILS: 0.25 µM; library screen: screen1; EWS-FLI1 expression: high (no doxycycline); treatment time: 72 h
Screen size: about 3,200 compounds; about 300 (9.4%) showed activity. This excerpt belongs to a sample that is enriched for actives.
The label Satisfied is reserved for cell viability (log2) strictly under 0.1; Not satisfied covers values equal to or above it.

Past entries and their recorded results:
COMPOUND	QUALITATIVE LABEL
CC[C@@]1(O)C[C@H](OC2C[C@@H](N(C)C)C(O)C(C)O2)c2c(cc3c(c2O)C(=O)c2c(O)ccc(O)c2C3=O)[C@H]1C(=O)OC (some centres not stated)	Satisfied
CN(C)[C@@H]1C(=O)C(C(N)=O)=C(O)[C@@]2(O)C(=O)C3=C(O)c4c(O)cccc4[C@@](C)(O)[C@H]3C[C@@H]12	Satisfied

QUERY: Please let me know if `C[C@]12CC[C@H](O)CC1=CC[C@@H]1[C@@H]2CC[C@]2(C)C(=O)CC[C@@H]12` shows cell viability (log2) below 0.1.
RESULT: Not satisfied

QUERY: Please let me know if `CCOP(=S)(OCC)SCn1c(=O)oc2cc(Cl)ccc21` shows cell viability (log2) below 0.1.
RESULT: Satisfied

QUERY: Please let me know if `CC(C)(C#N)O[C@@H]1O[C@H](CO)[C@@H](O)[C@H](O)[C@H]1O` shows cell viability (log2) below 0.1.
RESULT: Satisfied

QUERY: Please let me know if `COc1cc2c(cc1OC)C(=O)c1ccc(OC)c(OC)c1OCC(=O)C2` shows cell viability (log2) below 0.1.
RESULT: Satisfied

QUERY: Please let me know if CC1(C)C(=O)[C@@H]2O[C@@H]2[C@@]2(C)C1C[C@@H](O)[C@]1(C)C2CC[C@@]2(C)[C@H](c3ccoc3)OC(=O)C3OC321 (some centres not stated) shows cell viability (log2) below 0.1.
RESULT: Satisfied

QUERY: Please let me know if ClC1=C(Cl)C2(Cl)C3C(Cl)C(Cl)CC3C1(Cl)C2(Cl)Cl (configuration not stated) shows cell viability (log2) below 0.1.
RESULT: Not satisfied

----------
# System: A673/TR/shEF
# ASSAY METHOD TEXT: cell viability (LOESS-normalised, relative to median of negative controls) (log2 ratio); higher = more viable cells (less compound effect), active = hit call of the paper (over 3 MAD below the median)
# CONDITION DETAILS: 0.103 µM; library screen: screen3; EWS-FLI1 expression: low (doxycycline-induced shRNA knockdown); treatment time: 72 h
About 300 (9.4%) of roughly 3,200 compounds showed activity. The full list was thinned out, with actives kept by preference.
The label label 1 is reserved for cell viability (log2) strictly under 0.04; label 0 covers values equal to or above it.

Past entries and their recorded results:
MOLECULE	TARGET ENTITY	QUALITATIVE LABEL
CC(=O)O[C@H]1C[C@@H]2CC[C@@H]3[C@H](CC[C@@]4(C)[C@H]3C[C@H]([N+]3(C)CCCCC3)[C@@H]4OC(C)=O)[C@@]2(C)C[C@@H]1[N+]1(C)CCCCC1	A673/TR/shEF	label 1
C[C@]12CC[C@H]3[C@@H](CCC4=CC(=O)CC[C@@]43C)[C@@H]1CC[C@@H]2OC(=O)CCC1CCCC1	A673/TR/shEF	label 1
CC1=C2C[C@H]3[C@@H](CC=C4C[C@@H](O)CC[C@@]43C)[C@@H]2CC[C@]12O[C@@H]1C[C@H](C)CN[C@H]1[C@H]2C	A673/TR/shEF	label 1
O=C(OC1CC2CCC(C1)[N+]21CCCC1)C(O)(c1ccccc1)c1ccccc1 (centres undefined)	A673/TR/shEF	label 0
CN1[C@H]2CC(OC(=O)C(CO)c3ccccc3)C[C@H]1[C@H]1O[C@H]12 (some centres undefined)	A673/TR/shEF	label 1

Attention now shifts to the item below.
QUERY: Please let me know if `CN(C)[C@@H]1C(=O)C(C(N)=O)=C(O)[C@@]2(O)C(=O)C3=C(O)c4c(O)cccc4[C@@](C)(O)[C@H]3[C@H](O)[C@@H]12` shows cell viability (log2) below 0.04.
RESULT: label 1

Taken from the supplement of paper PMC6089552.
